MEASUREMENT TARGET: His-tagged kinase domain of CSF-1R (amino acids 568-912) (Homo sapiens, UniProt P07333)
Construct: The His-tagged kinase domain of CSF-1R (i.e., amino acids 568-912, GeneBank ID NM_005211); His; made in house; host or cells: baculovirus infected SF+Express insect cells
Sequence (P07333 568-912): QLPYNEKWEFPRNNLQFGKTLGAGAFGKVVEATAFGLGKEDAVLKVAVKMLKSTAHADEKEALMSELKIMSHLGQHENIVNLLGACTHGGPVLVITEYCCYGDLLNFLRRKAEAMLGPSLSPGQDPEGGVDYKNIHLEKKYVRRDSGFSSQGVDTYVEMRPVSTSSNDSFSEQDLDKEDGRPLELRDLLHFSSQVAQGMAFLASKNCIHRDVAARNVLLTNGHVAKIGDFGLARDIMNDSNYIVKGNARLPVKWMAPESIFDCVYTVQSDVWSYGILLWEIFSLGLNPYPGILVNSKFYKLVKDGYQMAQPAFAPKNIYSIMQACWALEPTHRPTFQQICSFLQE
TEST METHOD NOTES: Assay 2: CSF1R in-vitro AlphaScreen assay
Format: biochemical
TEST CONDITIONS: phosphorylation of biotinylated pEY substrate; 0.46 nM CSF-1R, 12 mM ATP mix
pIC50: −log10 of the molar value.
OBSERVABLE: pIC50

In [3]: df
Out[3]:
                                   compound  result_number
0  CCOc1cc2ncc(C(N)=O)c(Nc3ccc(C)cc3F)c2cc1C1CCN(C(=O)[C@@H](C)O)CC1           7.28
1  CCOc1cc2ncc(C(N)=O)c(Nc3ccc(C)cc3F)c2cc1C1CCN(C(C)=O)CC1           7.52

I = COc1cc2ncc(C(N)=O)c(Nc3cccc(Cl)c3F)c2cc1C1CCN(C(C)C)CC1
II = COc1cc2ncc(C(N)=O)c(Nc3ccc(C)cc3F)c2cc1C1CCN(C(C)C)CC1
Query: For this pair, I and II , which shows a numerically higher pIC50? Lab note: record the label of whichever item you select.
Reply: I

The reported numbers originate from patent US20090270450A1.
